tested on: K562; assay: NCI tumour cell line growth inhibition, 48 h
Active and inactive are the calls of the source. No stated cut-off is given here; in the data, active = GI50 up to about 1.1 µM and inactive = higher.
The reader will find reported GI50 values listed item by item below.

# compound, GI50
rows = [
    ("CC(C)CCC[C@@H](C)C1CCC2[C@@H]3CCC4CC(CCC=C(c5cc(Cl)c(OC(=O)c6ccccc6)c(C(=O)O)c5)c5cc(Cl)c(OC(=O)c6ccccc6)c(C(=O)O)c5)CC[C@]4(C)C3CC[C@@]21C (some centres not stated)", "> 100 µM (inactive)"),
    ("Cc1cc([N+](=O)[O-])ccc1Sc1c2ccccc2nc2ccccc12", "32.1 µM (inactive)"),
    ("CC(C)=CC1C(C(=O)O)C1(C)C (configuration not stated)", "> 750 µM (inactive)"),
    ("CCOC(=O)C1=C(C)NC(=O)NC1c1coc2cc(C)cc(C)c2c1=O (configuration not stated)", "30.7 µM (inactive)"),
    ("Cn1cc(NC(=O)Nc2cc(C(=O)Nc3cc(C(=O)Nc4cc(S(=O)(=O)O)c5cc(S(=O)(=O)O)cc(S(=O)(=O)O)c5c4)n(C)c3)n(C)c2)cc1C(=O)Nc1cc(C(=O)Nc2cc(S(=O)(=O)O)c3cc(S(=O)(=O)O)cc(S(=O)(=O)O)c3c2)n(C)c1", "> 100 µM (inactive)"),
    ("N#CCCN(CCC#N)c1ccc(C(Sc2ccccc2)C(NC(=O)c2cc([N+](=O)[O-])ccc2Cl)C(=O)Sc2ccccc2)cc1 (configuration not stated)", "2.39 µM (inactive)"),
    ("CCC12CCCN(Cc3ccccc3)C1c1c(n(C)c3ccccc13)C(CO)C2 (configuration not stated)", "29.4 µM (inactive)"),
]

* * *

system: CAKI-1; experiment: NCI tumour cell line growth inhibition, 48 h
Active and inactive are the calls of the source. Rule as the data show it: active = GI50 up to about 1.1 µM and inactive = higher.

# compound, GI50
data = [
    ("COc1ccc2c(c1)CC1c3c(ccc(OC)c3O)CC2N1C (stereo not drawn)", "40 µM (inactive)"),
    ("O=C(/C=C/c1ccccc1)CCN1CCN(CCC(=O)/C=C/c2ccccc2)CC1", "17.2 µM (inactive)"),
    ("CCc1ccccc1/N=N/C(=O)NNc1ccccc1CC", "27.9 µM (inactive)"),
]

* * *

system: MCF7; assay: NCI tumour cell line growth inhibition, 48 h
Active and inactive are the calls of the source. Rule as the data show it: active = GI50 up to about 1.1 µM and inactive = higher.
The reader will find reported GI50 values listed item by item below.

# molecule, GI50
measured = [
    ("Cc1ccc2c(c1)nc1n2C(N)=Nc2ccccc2S1", "> 27.2 µM (inactive)"),
    ("CO[C@H]1/C=C/O[C@@]2(C)Oc3c(C)c(O)c4c(O)c(c(/C=N/N5CCN(C)CC5)c(O)c4c3C2=O)NC(=O)/C(C)=C\\C=C\\[C@H](C)[C@H](O)[C@@H](C)[C@@H](O)[C@@H](C)[C@H](OC(C)=O)[C@@H]1C [RIFAMPIN]", "> 100 µM (inactive)"),
    ("COc1ccc(C[N+]23C(CC[C@H]2c2ccccc2)CC[C@H]3c2ccccc2)cc1 (stereo partly specified)", "14.7 µM (inactive)"),
    ("COC(=O)[C@]12CCC(C)(C)C[C@H]1C1=CC[C@@H]3[C@@]4(C)CC[C@H](OC5OC(CO)C(O)C(O)C5OC5OC(CO)C(O)C(O)C5O)C(C)(C)[C@@H]4CC[C@@]3(C)[C@]1(C)CC2 (stereo partly specified)", "12 µM (inactive)"),
    ("COc1cc2c3cc1Oc1cc(ccc1O)C[C@@H]1c4c(cc(OC)c(O)c4Oc4ccc(cc4)C[C@@H]3N(C)CC2)CC[N+]1(C)C", "22.4 µM (inactive)"),
    ("CC[n+]1[b-](C(C)(C)C)n(/N=C/C(C)(C)C)[b-](C(C)(C)C)[n+]1CC", "> 100 µM (inactive)"),
]
